Here the recorded hCaSR AVG (net increase in fluorescence over baseline) is given for each entry.
# measured target: hCaSR (Homo sapiens, UniProt P41180)
# Sequence (P41180 20-1078): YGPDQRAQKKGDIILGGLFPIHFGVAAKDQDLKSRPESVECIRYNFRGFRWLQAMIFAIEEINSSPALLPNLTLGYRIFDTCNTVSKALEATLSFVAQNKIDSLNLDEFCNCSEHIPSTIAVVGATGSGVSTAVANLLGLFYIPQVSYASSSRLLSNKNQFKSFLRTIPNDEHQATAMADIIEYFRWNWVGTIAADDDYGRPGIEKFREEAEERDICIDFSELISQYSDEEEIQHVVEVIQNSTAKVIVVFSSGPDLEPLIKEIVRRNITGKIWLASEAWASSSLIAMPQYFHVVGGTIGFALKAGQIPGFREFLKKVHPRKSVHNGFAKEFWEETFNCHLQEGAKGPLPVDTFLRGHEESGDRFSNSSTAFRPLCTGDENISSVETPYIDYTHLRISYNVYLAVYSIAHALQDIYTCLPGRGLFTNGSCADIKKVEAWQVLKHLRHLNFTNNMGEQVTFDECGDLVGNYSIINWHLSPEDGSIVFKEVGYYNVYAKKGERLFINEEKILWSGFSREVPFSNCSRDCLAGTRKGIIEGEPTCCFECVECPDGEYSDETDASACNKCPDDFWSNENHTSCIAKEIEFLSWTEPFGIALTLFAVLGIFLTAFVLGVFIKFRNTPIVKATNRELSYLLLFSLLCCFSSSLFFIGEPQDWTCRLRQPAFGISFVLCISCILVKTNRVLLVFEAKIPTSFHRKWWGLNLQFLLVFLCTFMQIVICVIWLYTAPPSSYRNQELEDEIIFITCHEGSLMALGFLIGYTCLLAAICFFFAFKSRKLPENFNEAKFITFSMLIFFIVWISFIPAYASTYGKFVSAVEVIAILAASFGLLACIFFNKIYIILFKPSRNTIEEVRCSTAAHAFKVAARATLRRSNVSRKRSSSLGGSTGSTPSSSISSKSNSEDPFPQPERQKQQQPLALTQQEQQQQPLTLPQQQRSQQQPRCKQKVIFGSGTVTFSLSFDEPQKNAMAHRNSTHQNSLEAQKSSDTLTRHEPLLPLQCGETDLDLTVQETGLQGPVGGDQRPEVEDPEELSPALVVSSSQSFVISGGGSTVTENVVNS
# test summary: Fluo-4 calcium assay, transiently transfected HEK293T/Gα16-gustducin 44 cells (Example 6a)
# Format: cell-based
# test parameters: mean of six replicates; Calcium Chloride (2 mM), Sucralose (0.5 mM), aspartame (0.85 mM), perillartine (50 μM), cinnamonitrile (100 EM), cyclamate (1 mM), NDHC (0.33 mM)
Residues, ends and D or L forms follow the SMILES beside them.
Unit RFU implied. Number only.

Answered cases to consult:
molecule	measured target	units label	value measured
C=C(C)[C@@H]1CC=C(/C=N/O)CC1	hCaSR (Homo sapiens, UniProt P41180)	RFU	73
N#CC=Cc1ccccc1	hCaSR (Homo sapiens, UniProt P41180)	RFU	197
COC(=O)[C@H](Cc1ccccc1)NC(=O)[C@@H](N)CC(=O)O [Aspartame] (H-Asp-Phe-OMe)	hCaSR (Homo sapiens, UniProt P41180)	RFU	41

Query block: Any idea what hCaSR AVG (net increase in fluorescence over baseline) was measured for [Ca+2].[Cl-].[Cl-] [Calcium, Calcium Chloride] ?
Result block: 7610

Query block: Any idea what hCaSR AVG (net increase in fluorescence over baseline) was measured for "OC[C@H]1O[C@H](O[C@]2(CCl)O[C@H](CCl)[C@@H](O)[C@@H]2O)[C@H](O)[C@@H](O)[C@H]1Cl" ?
Result block: 22
